test system: Plasmodium berghei; experiment: Antiplasmodial activity against Plasmodium berghei liver-stage forms at 1 to 10 uM; type: functional, organism-based
Activity calls are given as the source filed them. The calls are words filed in the database; no cut-off is given here. Starred links: 1 amine or outer side, 2 acyl side, 3 side chain; linkers in the order of their positions; H or OH if unused. Residues, ends and D or L forms follow the SMILES beside them. *: point of attachment. Primaquine = COc1cc(NC(C)CCCN*)c2ncccc2c1; Suc = O=C(CCC(=O)[*:2])[*:1]
MEASURED_PARAMETER: Activity

| COMPOUND | RESULT |
| --- | --- |
| CC[C@H](C)[C@H](NC(=O)[C@H](CCCCN)NC(=O)[C@H](CCCCN)NC(=O)[C@H](C)NC(=O)[C@H](CC(C)C)NC(=O)[C@H](C)NC(=O)[C@H](C)NC(=O)[C@H](CC(C)C)NC(=O)[C@H](C)NC(=O)[C@H](CCCCN)NC(=O)[C@H](CC(C)C)NC(=O)[C@H](CC(N)=O)NC(=O)[C@@H](NC(=O)[C@H](CCCCN)NC(=O)CNC(=O)[C@H](CC(C)C)NC(=O)[C@H](CC(C)C)NC(=O)[C@H](Cc1ccc(O)cc1)NC(=O)CNC(=O)[C@H](C)N)[C@@H](C)CC)C(=O)N[C@@H](CC(C)C)C(=O)O | Active |
| COc1cc(NC(C)CCCN)c2ncccc2c1 (centres undefined) [PRIMAQUINE] | Active |
| COc1cc(NC(C)CCCNC(=O)CCC(=O)N[C@@H](CCCNC(=N)N)C(=O)N[C@@H](CCCCN)C(=O)N[C@@H](CCCCN)C(=O)N[C@@H](CCCNC(=N)N)C(=O)N[C@@H](CCCNC(=N)N)C(=O)N[C@@H](CCC(N)=O)C(=O)N[C@@H](CCCNC(=N)N)C(=O)N[C@@H](CCCNC(=N)N)C(=O)N[C@@H](CCCNC(=N)N)C(=O)N2CCC[C@H]2C(=O)N2CCC[C@H]2C(=O)N[C@@H](CCC(N)=O)C(=O)O)c2ncccc2c1 (some centres undefined) ({Primaquine-Suc}-RKKRRQRRRPPQ-OH) | Active |

###

test system: Huh-7; assay: Cytotoxicity against human HuH7 cells assessed as reduction in cell viability at 1 to 10 uM; type: cell-based; conditions: huh-7, 10 µM
Starred links: 1 amine or outer side, 2 acyl side, 3 side chain; linkers in the order of their positions; H or OH if unused. Residues, ends and D or L forms follow the SMILES beside them. *: point of attachment. Primaquine = COc1cc(NC(C)CCCN*)c2ncccc2c1; Suc = O=C(CCC(=O)[*:2])[*:1]
MEASURED_PARAMETER: Activity

| COMPOUND | RESULT |
| --- | --- |
| CC[C@H](C)[C@H](NC(=O)[C@H](CCCCN)NC(=O)[C@H](CCCCN)NC(=O)[C@H](C)NC(=O)[C@H](CC(C)C)NC(=O)[C@H](C)NC(=O)[C@H](C)NC(=O)[C@H](CC(C)C)NC(=O)[C@H](C)NC(=O)[C@H](CCCCN)NC(=O)[C@H](CC(C)C)NC(=O)[C@H](CC(N)=O)NC(=O)[C@@H](NC(=O)[C@H](CCCCN)NC(=O)CNC(=O)[C@H](CC(C)C)NC(=O)[C@H](CC(C)C)NC(=O)[C@H](Cc1ccc(O)cc1)NC(=O)CNC(=O)[C@H](C)N)[C@@H](C)CC)C(=O)N[C@@H](CC(C)C)C(=O)O | Non-Toxic |
| COc1cc(NC(C)CCCNC(=O)CCC(=O)N[C@@H](CCCNC(=N)N)C(=O)N[C@@H](CCCCN)C(=O)N[C@@H](CCCCN)C(=O)N[C@@H](CCCNC(=N)N)C(=O)N[C@@H](CCCNC(=N)N)C(=O)N[C@@H](CCC(N)=O)C(=O)N[C@@H](CCCNC(=N)N)C(=O)N[C@@H](CCCNC(=N)N)C(=O)N[C@@H](CCCNC(=N)N)C(=O)N2CCC[C@H]2C(=O)N2CCC[C@H]2C(=O)N[C@@H](CCC(N)=O)C(=O)O)c2ncccc2c1 (stereo partly drawn) ({Primaquine-Suc}-RKKRRQRRRPPQ-OH) | Non-Toxic |
| CC[C@H](C)[C@H](NC(=O)[C@H](CCCNC(=N)N)NC(=O)[C@@H](NC(=O)[C@H](C)NC(=O)[C@@H](NC(=O)[C@@H](NC(=O)[C@H](CC(C)C)NC(=O)[C@H](CCCNC(=N)N)NC(=O)[C@@H](NC(=O)CCC(=O)NCCCC(C)Nc1cc(OC)cc2cccnc12)C(C)C)[C@@H](C)CC)C(C)C)C(C)C)C(=O)N[C@@H](Cc1c[nH]c2ccccc12)C(=O)N[C@@H](CCCNC(=N)N)C(=O)N[C@@H](CCCNC(=N)N)C(=O)O (stereo partly drawn) ({Primaquine-Suc}-VRLIVAVRIWRR-OH) | Non-Toxic |
